Hi there, I'd appreciate the recorded TGI for every entry that follows.
# System: BT-549 breast
# PROTOCOL TEXT: NCI tumour cell line growth inhibition, 48 h

Give one value of TGI per listed molecule.
1. CC1OC(OC2C(O)C(O)C(O)C(O)C2O)C(N)CC1N=C(N)C(=O)O (stereo not given)
2. COC(=O)/C=C/[C@@H]1[C@H](C)N1S(=O)(=O)c1ccc(C)cc1 (stereo not given in full)
3. Cc1ccc2nc(NS(=O)(=O)c3cc(C)c(Cl)cc3S)[nH]c2c1
4. CN1CCC(C(O)(c2ccccc2)c2ccc(Br)cc2)CC1 (stereo not given)
5. O=CN1N=C(c2cccc(Nc3ccnc4cc(Cl)ccc34)c2)CC1c1ccc(Cl)cc1 (stereo not given)

**Result**
1. > 100 µM
2. > 100 µM
3. > 100 µM
4. > 100 µM
5. 16.2 µM

---

Hi there, I'd appreciate the recorded TGI for every entry that follows.
# Tested on: LOX IMVI melanoma
# PROTOCOL TEXT: NCI tumour cell line growth inhibition, 48 h
One number for each entry, in µM.

Solved entries (count: 2):
MOLECULE	TGI (µM)
O=[N+]([O-])c1ccc(N=Nc2c(O)[nH]c3ccccc23)c([N+](=O)[O-])c1	20.7
O=C1c2c(Br)sc(Br)c2[C@@H](O)[C@H]1O	34.1

Give one value of TGI per listed molecule.
1. COc1cc([C@@H]2c3cc4c(cc3[C@@H](NCc3cccc(C#N)c3)C3COC(=O)[C@@H]32)OCO4)cc(OC)c1O (stereo partly specified)
2. COc1ccc(C(O)c2cc3c(N)c(C(=O)Nc4cccc(Br)c4C)sc3nc2C)cc1 (stereo unspecified)
3. O=C1C(=O)C2(CC1S(=O)(=O)c1ccccc1)c1ccccc1-c1ccccc12 (stereo unspecified)
4. CCCc1cc(OC(=O)c2c(O)cc(OC)cc2CCC)cc(O)c1C(=O)O

**Result**
1. 8.36
2. 12.4
3. 34.5
4. 61.7

Give one value of TGI per listed molecule.
1. O=[N+]([O-])/C(Cl)=C(/C(Cl)=C(Cl)Cl)N1CCOCC1
2. Cc1ccc(OC(=O)N2C/C(=C\c3ccccc3)C(=O)/C(=C/c3ccccc3)C2)cc1
3. Cc1ccc(-c2cc(-c3ccc(Cl)cc3)nc(/N=C3\C(=O)N(CN(C)C)c4ccccc43)n2)cc1

**Result**
1. 17.3
2. 9.71
3. 58.5

---

# Test system: MOLT-4 leukemia
# PROTOCOL TEXT: NCI tumour cell line growth inhibition, 48 h
READOUT TYPE: TGI

Solved entries (count: 2):
COMPOUND	RESULT
O=C1Cc2cn[nH]c2-c2ccccc2N1	49.7 µM
CCc1n[nH]c(=O)n1/N=C(\C)c1ccccc1	> 100 µM

Give one value of TGI per listed compound.
1. CCSC1=N/C(=C\c2ccco2)C(=O)N1
2. O=c1[nH][nH]c(=O)c2c1ccc1oc3ccccc3c12
3. CC(=O)Nc1cccc(N2C(=O)/C(=C\c3cccc(Oc4ccccc4)c3)SC2c2ccccc2)c1 (stereo unspecified)
4. NC(=O)[N+](=CC(=S)Nc1ccccc1Cl)C(N)=O

**Result**
1: > 100 µM; 2: > 100 µM; 3: > 100 µM; 4: > 100 µM

---

# System: UO-31 renal
# PROTOCOL TEXT: NCI tumour cell line growth inhibition, 48 h
READOUT TYPE: TGI

Solved entries (count: 2):
MOLECULE	TGI
C=C1C2=C(CCCC2)C(=O)OC12CCCCC2	> 100 µM
Cc1ccc(S(=O)(=O)N/N=C2/CCC3(O)CC2(C)CCC2[C@H]3CC2(C)C)cc1 (stereo partly drawn)	68.6 µM

Read the next record carefully.
**Query** I am curious: what TGI value has been reported for O=C1C(=O)C2(CC1S(=O)(=O)c1ccccc1)c1ccccc1-c1ccccc12 (stereo not drawn) ?
**Result** 47 µM
